# TGT: NUDT7 (Homo sapiens, UniProt P0C024)
# Construct: residues 14-235, E. coli, pNIC28-Bsa4, N-terminal His6 tag removed by TEV, construct 26672 Da
# Sequence (P0C024 14-235): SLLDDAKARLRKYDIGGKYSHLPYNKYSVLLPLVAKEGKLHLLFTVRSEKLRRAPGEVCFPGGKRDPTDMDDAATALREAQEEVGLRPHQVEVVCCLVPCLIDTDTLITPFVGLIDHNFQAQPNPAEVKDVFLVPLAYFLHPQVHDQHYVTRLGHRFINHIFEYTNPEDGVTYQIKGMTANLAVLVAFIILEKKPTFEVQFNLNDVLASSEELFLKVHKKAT
# Design: Intact protein LC/MS covalent labelling, fragments in pools of five, 200 uM each, 4 °C
# CONDITION LABEL: 24 h, 4 °C, pool of five; 200 µM; covalent
// reported NUDT7 per item
OUTCOME MEASURE: NUDT7

[[record]]
molecule = "C=CC(=O)N(C)Cc1c(C)nc2sc(C)cn12"
value = 0.06

[[record]]
molecule = "O=C(CCl)N1N=C(c2cccs2)CC1c1ccco1 (centres unmarked)"
value = 0.46

[[record]]
molecule = "O=C(CCl)NCC1CCOC1 (centres unmarked)"
value = 0

[[record]]
molecule = "Cc1ccc(C(=O)NNC(=O)CCl)cc1"
value = 0

[[record]]
molecule = "CN(C(=O)CCl)c1ccc([N+](=O)[O-])cc1"
value = 0.14

[[record]]
molecule = "O=C(NC1CCN(C(=O)CCl)CC1)c1ccccc1"
value = 0.09

[[record]]
molecule = "Cc1cc(S(N)(=O)=O)cc(NC(=O)CCl)c1C"
value = 0.09

[[record]]
molecule = "Cc1cc(N2CCCC2)ccc1NC(=O)CCl"
value = 0.24

[[record]]
molecule = "N#CSc1ccc(NC(=O)CCl)c(Cl)c1"
value = 0

[[record]]
molecule = "Cc1nc(CN2CCN(C(=O)CCl)CC2)cs1"
value = 0

[[record]]
molecule = "Cc1cccc(N(C(=O)CCl)C2C=CS(=O)(=O)C2)c1 (centres unmarked)"
value = 0.4


###

# ASSAY DETAILS: in vitro
# Design: species or system CCD841, HEK293
# CONDITION LABEL: human, hb2 cells, read-out: HB-2 Cells Viability (%)
Label scheme for viability at 48 h, 10 µM: lower range = under 50%, middle range = from 50% up to 90%, upper range = 90% and over

[[record]]
molecule = "CC1(C)C(=O)Nc2ccccc2N1C(=O)CCl"
cat = "lower range"

[[record]]
molecule = "N#Cc1ccc(CNC(=O)CCl)cc1"
cat = "middle range"

[[record]]
molecule = "O=C(CCl)Nc1c(Cl)cc(Cl)cc1C(=O)O"
cat = "upper range"

[[record]]
molecule = "CN(Cc1ccccc1)C(=O)CCl"
cat = "middle range"

[[record]]
molecule = "Cc1nc(NC(=O)CCl)sc1C"
cat = "lower range"

[[record]]
molecule = "N#CC(c1ccc(F)cc1)N1CCN(C(=O)CCl)CC1 (centres unmarked)"
cat = "lower range"

[[record]]
molecule = "O=C(CCl)NCc1cc(Br)cs1"
cat = "middle range"

[[record]]
molecule = "CC(C)N(C(=O)CCl)C1CCCCC1"
cat = "middle range"

[[record]]
molecule = "C=CC(=O)NCC1(O)CCCC(C(F)(F)F)C1 (centres unmarked)"
cat = "upper range"

[[record]]
molecule = "C=CC(=O)NC1CC(C)(C)OC1(C)C (centres unmarked)"
cat = "upper range"


###

Parameter OTUB2: see the listing below.
# TGT: OTUB2 (OTUB2A) (Homo sapiens)
# Construct: full length residues 1-234, E. coli BL21(DE3)-R3, His tag removed by TEV, construct 27312 Da
# Parameters: Intact protein LC/MS covalent labelling, fragments in pools of five, 200 uM each, 4 °C
# CONDITION LABEL: 24 h, 4 °C, pool of five; 200 µM; covalent
OUTCOME MEASURE: OTUB2

[[record]]
compound = "CC(C)N1CCC(NC(=O)CCl)CC1.Cl"
value = 0

[[record]]
compound = "Cc1ccc(C(=O)N2CCN(C(=O)CCl)CC2)cc1"
value = 0

[[record]]
compound = "C=CC(=O)Nc1nc2ccccc2s1"
value = 0

[[record]]
compound = "Cc1ccc(NC(=O)CCl)cc1I"
value = 0.8

[[record]]
compound = "C=CC(=O)N1CCC(C(=O)N(C)c2ccccc2)C1 (centres unmarked)"
value = 0

[[record]]
compound = "O=C(CCl)NC1CCC2(CC1)OCCO2"
value = 0.13

[[record]]
compound = "O=C(CCl)NCc1ccccc1F"
value = 0.62

[[record]]
compound = "Cc1nnc(NC(=O)CCl)s1"
value = 0

[[record]]
compound = "COC(=O)c1c(NC(=O)CCl)sc(C)c1C"
value = 0

[[record]]
compound = "C=CC(=O)N1CCC(Cc2ccccn2)CC1"
value = 0

[[record]]
compound = "O=C(CCl)Nc1cc2ccccc2cc1C(=O)O"
value = 0.1

[[record]]
compound = "Cc1cc(Cl)ccc1NC(=O)CCl"
value = 0.39

[[record]]
compound = "Cc1nc(NC(=O)CCl)sc1-c1ccccc1"
value = 0.09

[[record]]
compound = "O=C(CCl)N1CCN(S(=O)(=O)c2ccc3ccccc3c2)CC1"
value = 0

[[record]]
compound = "O=C(CCl)N1CCC(C(=O)N2CCCCC2)CC1"
value = 0.08

[[record]]
compound = "O=C(CCl)NCc1ccc2c(c1)OCO2"
value = 0.16

[[record]]
compound = "C=CC(=O)Nc1ccccc1[N+](=O)[O-]"
value = 0

[[record]]
compound = "CC(NC(=O)CCl)C1CC2CCC1C2 (centres unmarked)"
value = 0

[[record]]
compound = "O=C(CCl)N1CCN(S(=O)(=O)c2ccccc2)CC1"
value = 0.08

[[record]]
compound = "N#Cc1c(NC(=O)CCl)sc2c1CCC2"
value = 0.07

[[record]]
compound = "O=C(CCl)Nc1ccc2[nH]c(=O)[nH]c2c1"
value = 0.3

[[record]]
compound = "O=C(CCl)N1c2ccccc2OCC1c1ccccc1 (centres unmarked)"
value = 0

[[record]]
compound = "O=C(CCl)Nc1c(F)cc(F)cc1Br"
value = 0


###

// NNMT lookup, one value per entry
# TGT: NNMT (hNNMT) (Homo sapiens)
# Construct: wild type, N-terminal His6 tag kept (no cleavage described), E. coli, construct 31248 Da
# Sequence (P40261 whole entry): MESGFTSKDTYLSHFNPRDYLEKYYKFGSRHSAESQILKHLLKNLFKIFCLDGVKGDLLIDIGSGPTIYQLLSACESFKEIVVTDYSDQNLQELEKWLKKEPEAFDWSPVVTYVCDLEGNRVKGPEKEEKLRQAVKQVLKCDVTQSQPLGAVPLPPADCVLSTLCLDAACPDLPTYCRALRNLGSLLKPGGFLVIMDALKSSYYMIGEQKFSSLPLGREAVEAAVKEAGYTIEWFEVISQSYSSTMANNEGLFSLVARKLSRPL
# Set-up: Intact protein LC/MS covalent labelling, fragments in pools of five, 200 uM each, 4 °C
# CONDITION LABEL: 24 h, 4 °C, pool of five; 200 µM; covalent
OUTCOME MEASURE: NNMT

[[record]]
compound = "Cc1nc(C2(NC(=O)CCl)CCCCC2)no1"
value = 0

[[record]]
compound = "Cc1ccccc1C(C)NC(=O)CCl (centres unmarked)"
value = 0.26

[[record]]
compound = "N#CCN(C(=O)CCl)c1ccccc1"
value = 0.25

[[record]]
compound = "O=C(CCl)NC(=O)CN1CCCC1=O"
value = 0

[[record]]
compound = "C=CC(=O)N1CCC(c2nc3cccc(C)c3o2)CC1"
value = 0

[[record]]
compound = "C=CC(=O)N1CCC(C(=O)c2cccs2)CC1"
value = 0

[[record]]
compound = "O=C(CCl)Nc1ccc(C(=O)O)cc1"
value = 0

[[record]]
compound = "O=C(CCl)N(c1ccccc1)C1CCS(=O)(=O)C1 (centres unmarked)"
value = 0

[[record]]
compound = "C=CC(=O)N1CCCCC1C(=O)O (centres unmarked)"
value = 0

[[record]]
compound = "Cc1ccc(S(=O)(=O)NC(=O)CCl)cc1"
value = 0

[[record]]
compound = "O=C(CCl)NC1CCCC1"
value = 0

[[record]]
compound = "C=CC(=O)N1CCCCC1c1cnn(C)c1 (centres unmarked)"
value = 0

[[record]]
compound = "O=C(CCl)NC(=O)c1cccc([N+](=O)[O-])c1"
value = 0.12

[[record]]
compound = "Cc1cccc(CNC(=O)CCl)c1"
value = 0.29

[[record]]
compound = "C=CC(=O)N(C)Cc1c(C)nc2sc(C)cn12"
value = 0.32

[[record]]
compound = "O=C(CCl)NC1CCCC(C(F)(F)F)C1 (centres unmarked)"
value = 0.29

[[record]]
compound = "C=CC(=O)Nc1cccc(C(F)(F)F)c1"
value = 0

[[record]]
compound = "C=CC(=O)NCc1ccc2c(c1)C(C)(C)C(=O)N2"
value = 0.21

[[record]]
compound = "C=CC(=O)N1CCC(n2ccc(C(F)(F)F)n2)CC1"
value = 0

[[record]]
compound = "C=CC(=O)N1CCC(c2nccn2C)C1 (centres unmarked)"
value = 0.11

[[record]]
compound = "C=CC(=O)N1CCC(CS(C)(=O)=O)CC1"
value = 0

[[record]]
compound = "Cc1cc(CNC(=O)CCl)cc(C)c1O"
value = 0

[[record]]
compound = "Cl.O=C(CCl)NC1CCN(C2CC2)CC1"
value = 0.23


###

Below, each entry is listed with its recorded OTUB2.
# TGT: OTUB2 (OTUB2A) (Homo sapiens, UniProt Q96DC9)
# Construct: full length residues 1-234, E. coli BL21(DE3)-R3, His tag removed by TEV, construct 27312 Da
# Sequence (Q96DC9 1-234): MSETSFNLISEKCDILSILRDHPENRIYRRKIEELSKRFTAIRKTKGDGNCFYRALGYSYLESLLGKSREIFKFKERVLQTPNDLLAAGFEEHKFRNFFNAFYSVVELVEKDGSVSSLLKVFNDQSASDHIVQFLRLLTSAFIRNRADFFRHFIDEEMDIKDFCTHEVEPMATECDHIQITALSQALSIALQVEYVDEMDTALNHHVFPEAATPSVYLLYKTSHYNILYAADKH
# Parameters: Intact protein LC/MS covalent labelling, fragments in pools of five, 200 uM each, 4 °C
# CONDITION LABEL: 24 h, 4 °C, pool of five; 200 µM; covalent
OUTCOME MEASURE: OTUB2

[[record]]
smi = "CC(=O)Nc1cccc(NC(=O)CCl)c1"
tgt = "OTUB2 (OTUB2A) (Homo sapiens, UniProt Q96DC9)"
value = 0

[[record]]
smi = "Cc1c(C#N)c(NC(=O)CCl)n(-c2ccccc2)c1C"
tgt = "OTUB2 (OTUB2A) (Homo sapiens, UniProt Q96DC9)"
value = 0.09

[[record]]
smi = "Cc1ccc(C)c(-n2nc(C)cc2NC(=O)CCl)c1"
tgt = "OTUB2 (OTUB2A) (Homo sapiens, UniProt Q96DC9)"
value = 0.43

[[record]]
smi = "COC(=O)CNC(=O)CCl"
tgt = "OTUB2 (OTUB2A) (Homo sapiens, UniProt Q96DC9)"
value = 0.06

[[record]]
smi = "O=C(CCl)N1CCNCC1.O=C(O)C(F)(F)F"
tgt = "OTUB2 (OTUB2A) (Homo sapiens, UniProt Q96DC9)"
value = 0

[[record]]
smi = "NC(=O)c1c(NC(=O)CCl)sc2c1CCCC2"
tgt = "OTUB2 (OTUB2A) (Homo sapiens, UniProt Q96DC9)"
value = 0.16


Data provenance: paper PMC6556873
